From: ChEMBL document CHEMBL2203066

Recorded metabolised at 1 h, 3 µM values for a group of molecules are listed next.
assay protocol: Drug metabolism in human liver microsomes at 3 uM after 1 hr
Type: ADME, Microsome
reported conditions: read-out: Drug metabolism
recorded metric: metabolised at 1 h, 3 µM

• C[C@]12CC[C@H]3[C@@H](CCC4=CC(=O)CC[C@@]43C)[C@@H]1CC[C@@H]2O = 65%
• Cc1ncc2n1-c1ccc(Cl)cc1C(c1ccccc1F)=NC2 = 65%

---

assay protocol: in vivo
reported conditions: Sprague-Dawley, rat, po, 10 mg/kg
recorded metric: bioavailability (%)

* CC(=O)N[C@H]1[C@H]([C@H](O)[C@H](O)CO)OC(C(=O)O)=C[C@@H]1N=C(N)N [ZANAMIVIR] | 3.7

---

Consider molecules characterized by their IC50 with Neuraminidase (Influenza A virus, UniProt B4URF0).
Sequence (B4URF0 whole entry): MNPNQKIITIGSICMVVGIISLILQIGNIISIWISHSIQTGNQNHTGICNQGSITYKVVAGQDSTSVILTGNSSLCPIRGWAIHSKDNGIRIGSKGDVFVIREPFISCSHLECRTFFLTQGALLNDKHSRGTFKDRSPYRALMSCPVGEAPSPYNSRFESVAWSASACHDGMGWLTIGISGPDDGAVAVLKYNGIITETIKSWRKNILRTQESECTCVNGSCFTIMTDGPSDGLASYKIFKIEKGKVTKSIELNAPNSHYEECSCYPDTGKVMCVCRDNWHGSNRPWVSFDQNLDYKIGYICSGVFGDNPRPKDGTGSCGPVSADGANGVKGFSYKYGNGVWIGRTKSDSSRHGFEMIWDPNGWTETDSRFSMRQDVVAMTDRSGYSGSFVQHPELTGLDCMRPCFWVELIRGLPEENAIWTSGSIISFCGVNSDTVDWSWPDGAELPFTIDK
recorded metric: IC50 (nM)

- CCC(CC)O[C@@H]1C=C(P(=O)(O)O)C[C@H](NC(=N)N)[C@H]1NC(C)=O: 0.3
- CCC(CC)O[C@@H]1C=C(P(=O)(O)O)C[C@H](N)[C@H]1NC(C)=O: 1.8
